Target: T1, MPP5 PDZ (human, UniProt Q8N3R9 238-336)
T1 construct: PDZ domain of human MPP5 (PALS1), residues 238-336, numbering of the full-length human protein; […]; Labelled on amines with RED-NHS dye for MST; also called PALS1 PDZ; not shown: GST, N-terminal, cleaved
T1 sequence (looked up): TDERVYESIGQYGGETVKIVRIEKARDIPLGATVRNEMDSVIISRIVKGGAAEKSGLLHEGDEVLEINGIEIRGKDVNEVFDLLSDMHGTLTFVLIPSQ
Assay: MST; […]; PBS tween 20 0.05%; room temperature; […]; duplicate
Details: both partners purified
pKd: −log10 of the molar value.
MEASURED PROPERTY: pKd

{"BINDER": "NLNSSRVLDLLV (also called P71L PBM peptide; SARS-CoV-2 P71L) [C-terminal SARS-CoV-2-E PBM P71L peptide of the beta variant]", "OBSERVED": 4.66}
